System: NCI-H460 lung
Assay: NCI-60 one-dose screen, 48 h (100 = growth as untreated, 0 = no growth, -100 = all killed)
Settings: 10 µM unless noted
This is part of a sample that, as a whole, favours compounds with a hit. Of some 83,000 tested, about 20% had one in any assay. Calls of active or inactive are those of the source. Rule for the calls: active = growth percent below 10; inactive = the rest.

>  <Smiles Repr>
CCN(CC)CCCCCNc1cc(OC(=O)c2ccc(Cl)cc2)cc2cccnc12

>  <growth>
110% (inactive)

$$$$
>  <Smiles Repr>
Nc1nc(N)c(-c2ccc(Cl)c(Cl)c2)c(CBr)n1

>  <growth>
25.7% (inactive)

$$$$
>  <Smiles Repr>
CCCCNC(=O)Oc1ccc(/C(=C(/C)Cc2ccc(OC)cc2)c2ccc(OCCN3CCCC3)cc2)cc1

>  <growth>
17.7% (inactive)

$$$$
>  <Smiles Repr>
N#Cc1c(-c2ccc(Cl)cc2)nc(NN2C(=O)c3ccccc3C2=O)nc1N1CCOCC1

>  <growth>
106% (inactive)

$$$$
>  <Smiles Repr>
OB1OCc2cc(/C=C/c3cccc(C(F)(F)F)c3)ccc21

>  <growth>
-10.1% (active)

$$$$
